meta.source: patent US11028051B2

Target: BRD3-BD1 (Homo sapiens (Human))
Sequence (Q15059 34-140): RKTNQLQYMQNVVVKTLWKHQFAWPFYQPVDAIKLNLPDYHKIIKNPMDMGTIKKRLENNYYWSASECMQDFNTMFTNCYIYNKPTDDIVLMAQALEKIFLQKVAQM
Assay: competitive TR-FRET assay, BET-BD with acetylated peptide ligand
Type: binding
Details: Table 8; read-out: BRD3(1)
pEC50: −log10 of the molar value.
parameter: pEC50

# item-smiles, pEC50
rows = [
    ("COC(=O)c1ccc(N[C@@H]2C[C@H](C)N(C(C)=O)c3ccc(-c4cccc(NC(C)=O)c4)cc32)cc1", 5.96),
    ("COC(=O)c1ccc(N[C@@H]2C[C@H](C)N(C(C)=O)c3ccc(-c4ccnn4C)cc32)cc1", 6.05),
]

* * *

Biological target: UniProt Q58F21
Assay: competitive TR-FRET assay, BET-BD with acetylated peptide ligand
Assay type: binding
Conditions: BRDT; Table 11 additional modifications; read-out: BRDT EC50
parameter: EC50 (nM)

1 = COc1ccc(N[C@@H]2C[C@H](C)N(C(C)=O)c3ccc(-c4cccc(NC(C)=O)c4)cc32)cc1
2 = CC(=O)N1c2ccc(-c3cccc(NC(=O)c4ccccc4)c3)cc2[C@H](NC(=O)OC(C)C)C[C@@H]1C
3 = CC(=O)Nc1cccc(-c2ccc3c(c2)[C@H](Nc2ccc4c(c2)COC4=O)C[C@H](C)N3C(C)=O)c1
4 = COc1cc(F)ccc1N[C@@H]1C[C@H](C)N(C(C)=O)c2ccc(-c3cc[nH]n3)cc21
Sort entries by EC50 from minimum to maximum value. Output the labels ranked as instructed.
2, 3, 1, 4
(2: 490 nM, 3: 1800 nM, 1: 2600 nM, 4: 4900 nM)

I = CC(=O)N1c2ccc(-c3cccc(NC(=O)OC(C)(C)C)c3)cc2[C@H](Nc2ccc(Cl)cc2)C[C@@H]1C
II = CC(=O)Nc1cccc(-c2ccc3c(c2)[C@H](Nc2cccc4ncccc24)C[C@H](C)N3C(C)=O)c1
Kindly identify which of I and II has the larger recorded EC50 value. # reply format: chosen label
I
(I: 10000 nM, II: 1200 nM)
